System: P. falciparum 3D7 (chloroquine-sensitive)
Assay Remarks: Anti-malarial activity, P. falciparum 3D7 culture, 72 hour, DNA content by flow cytometry
Format: cell-based
Cond: synchronized ring-stage parasites
pIC50: −log10 of the molar value.
Reported Metric: pIC50

INSERT INTO assay_data (compound, reported_metric, reading_qualifier, test_result) VALUES
  ('CC(C)(C)c1cc(N)c(SCCCC(=N)N)c(NC(=O)c2cccc(C(=O)Nc3cc(C(C)(C)C)cc(N)c3SCCCC(=N)N)c2)c1 [Compound 113]', 'pIC50', '=', 6.18),
  ('N=C(N)NCCCOc1cccc(-c2cncc(-c3cccc(OCCCNC(=N)N)c3)c2)c1 [Compound 133]', 'pIC50', '=', 6.93),
  ('N=C(N)NCCCCCC(=O)Nc1cc(C(F)(F)F)cc(NC(=O)c2cc(C(=O)Nc3cc(C(F)(F)F)cc(NC(=O)CCCCCNC(=N)N)c3SCCN)ncn2)c1SCCN [Compound 106]', 'pIC50', '=', 6.54),
  ('NCCc1ccccc1-c1ccc(-c2ccccc2CCN)s1 [Compound 249]', 'pIC50', '=', 7.55),
  ('O=C(Nc1cc(C(F)(F)F)c(OC2CCNC2)cc1OC1CCNC1)c1cc(C(=O)Nc2cc(C(F)(F)F)c(OC3CCNC3)cc2OC2CCNC2)ncn1 (stereo not drawn) [Compound 103]', 'pIC50', '=', 6.83),
  ('N=C(N)NCCc1cccc(-c2cncc(-c3ccc(-c4cncc(-c5cccc(CCNC(=N)N)c5)c4)cc3)c2)c1 [Compound 231]', 'pIC50', '=', 6.43),
  ('Cn1c(-c2ccc(CCCN)cc2)cnc1-c1ccc(CCCN)cc1 [Compound 265]', 'pIC50', '<', 7.00),
  ('COc1cc(SCCN)c(C(F)(F)F)cc1NC(=O)Nc1cc(C(F)(F)F)c(SCCN)cc1OC [Compound 277]', 'pIC50', '=', 6.24),
  ('NCCc1cccc(-c2cncc(-c3ccc(-c4cncc(-c5cccc(CCN)c5)c4)cc3)c2)c1 [Compound 234]', 'pIC50', '=', 6.18),
  ('N=C(N)NCCCOc1cc(OCCCNC(=N)N)c(-c2cccc(F)c2)cc1-c1cccc(F)c1 [Compound 138]', 'pIC50', '=', 6.65),
  ('NCCOc1c(N)cc(C(F)(F)F)cc1NC(=O)c1cccc(C(=O)Nc2cc(C(F)(F)F)cc(N)c2OCCN)c1 [Compound 112]', 'pIC50', '=', 6.19),
  ('NCCCOc1cccc(-c2cncc(-c3ccc(-c4cncc(-c5cccc(OCCCN)c5)c4)s3)c2)c1 [Compound 225]', 'pIC50', '=', 6.34),
  ('N=C(N)NCCCOc1cccc(-c2ccc(-c3cccc(OCCCNC(=N)N)c3)s2)c1 [Compound 244]', 'pIC50', '=', 6.83),
  ('NCCSc1c(NC(=O)c2cc(C(=O)Nc3cc(C(F)(F)F)cc(NC(=O)c4cccs4)c3SCCN)ncn2)cc(C(F)(F)F)cc1NC(=O)c1cccs1 [Compound 311]', 'pIC50', '<', 7.00),
  ('NCCc1cccc(-c2cnc(-c3cccc(CCN)c3)s2)c1 [Compound 242]', 'pIC50', '<', 5.70);
